The measurements presented in this section are drawn from patent US20210206877A1.

Target: BACE1 endogenous to primary cortical neurons from E16.5 CD1 mice (mouse, UniProt P56818 46-501)
Sequence (P56818 46-501): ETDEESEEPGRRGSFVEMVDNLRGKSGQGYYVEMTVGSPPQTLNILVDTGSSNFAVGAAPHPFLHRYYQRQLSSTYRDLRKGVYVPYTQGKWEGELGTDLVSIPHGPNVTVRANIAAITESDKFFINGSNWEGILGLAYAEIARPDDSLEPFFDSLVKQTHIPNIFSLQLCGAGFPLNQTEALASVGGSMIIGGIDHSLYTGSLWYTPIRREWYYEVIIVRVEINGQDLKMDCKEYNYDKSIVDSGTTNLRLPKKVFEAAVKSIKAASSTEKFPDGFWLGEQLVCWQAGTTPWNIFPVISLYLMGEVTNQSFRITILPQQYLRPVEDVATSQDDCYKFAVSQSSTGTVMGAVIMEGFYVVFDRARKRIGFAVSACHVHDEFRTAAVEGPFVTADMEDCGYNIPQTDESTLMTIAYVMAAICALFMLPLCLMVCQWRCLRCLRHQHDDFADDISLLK
Assay: cell-based or functional assay
ENDPOINT_LABEL: max % inhibition, Abeta x-40 in mouse cortical neurons (%)
Record the value in %, omitting the unit from your answer.

Below, 2 binders whose answers are already recorded.
6310 (antibody, V domains shown) VH: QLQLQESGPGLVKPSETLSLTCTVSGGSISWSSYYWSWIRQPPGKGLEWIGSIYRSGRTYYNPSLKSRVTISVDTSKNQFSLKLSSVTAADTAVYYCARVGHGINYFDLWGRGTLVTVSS VL: EIVLTQSPATLSLSPGERATLSCRASQSVSSYLAWYQQKPGQAPRLLIYDASNRATGIPARFSGSGSGTDFTLTISSLEPEDFAVYYCQQSVTWPPRTFGGGTKVEIK: 71
6307 (antibody, V domains shown) VH: QLQLQESGPGLVKPSETLSLTCTVSGGSISWSSYYWSWIRQPPGKGLEWIGSIYRSGRTYYNPSLKGRVTISVDTSKNQFSLKLSSVTAADTAVYYCARVGHGINYFDLWGRGTLVTVSS VL: EIVLTQSPATLSLSPGERATLSCRASQSVSSYLAWYQQKPGQAPRLLIYDASNRATGIPARFSGSGSGTDFTLTISSLEPEDFAVYYCQQSIVWPPRTFGGGTKVEIK: 68

Continue with the next binder.
Query: Return reported max % inhibition, Abeta x-40 in mouse cortical neurons; argument: 6314 (antibody, V domains shown) VH: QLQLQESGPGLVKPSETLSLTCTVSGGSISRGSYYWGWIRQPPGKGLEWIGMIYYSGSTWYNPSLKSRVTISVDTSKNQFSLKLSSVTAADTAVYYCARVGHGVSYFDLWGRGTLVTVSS VL: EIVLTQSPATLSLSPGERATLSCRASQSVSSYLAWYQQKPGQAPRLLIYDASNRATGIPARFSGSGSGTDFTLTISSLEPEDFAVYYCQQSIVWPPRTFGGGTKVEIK
Reply: 71
